Assay: A CellTox Green Cytotoxicity Assay to monitor cytotoxicity in HEK293 cells - 32 hour (AID 1224881); also: nearly all actives have a fitted effect of over 40% in size
Details: CellTox Green fluorescence; series mostly up to 76.8 µM
Records with an inconclusive call do not appear. The source made the active and inactive calls. Calls follow the shape of the dose curve; as a rule, active = well fitted activation curve with a large enough effect in the repeat runs; inconclusive = weak or mixed curves; inactive = flat fitted curve, though single readings scatter.
Outcomes: active, inactive

* C=CC(C)(CCC=C(C)C)OC=O (stereo not drawn) | inactive
* Cc1ccc(O)c(N)c1 | inactive
* CCN(CC)C(=O)c1cc(S(=O)(=O)Cc2ccccc2)c(N2CCC(c3ccccc3)CC2)cc1N(CC)CCN(C)C | active
* CC1(C)CC(O)CC(C)(C)N1 | inactive
* CC(C)(C)C1CCC(=O)CC1 | inactive
* CC[N+](CC)(CC)CCOC(=O)C(C1CCCC1)C1CCCC1 | inactive
* CC(C)(C)NSc1nc2ccccc2s1 | inactive
* CCCCCCC1CCCC(=O)O1 (stereo not drawn) | inactive
* O=C(/C=C/c1ccc(O)c(O)c1)O[C@@H](C(=O)O)[C@@H](OC(=O)/C=C/c1ccc(O)c(O)c1)C(=O)O | inactive
* Fc1ccc(C(c2ccc(F)cc2)N2CCNCC2)cc1 | inactive
* Clc1ccnc(Cl)n1 | inactive
* CCCCOC(=O)CO | inactive
* CC1=CCC(=C(C)C)CC1 | inactive
* Nc1cc(Cl)c(O)c(Cl)c1 | inactive
* O=C1NC(=O)[C@@H]2CC=CC[C@H]12 | inactive
* CC(C)(C)c1csc(-c2cc3cc(OCc4ccccc4CC(=O)O)ccc3o2)n1 | active
* O[C@@H]([C@H](O)[C@H](O)CBr)[C@H](O)CBr | inactive
* Cc1cc(C(C#N)c2ccc(Cl)cc2)c(Cl)cc1NC(=O)c1cc(I)cc(I)c1O (stereo not drawn) | inactive
* Nc1nc(N)nc(-c2cc(Cl)ccc2Cl)n1 | inactive
* NC(=O)c1cccc([N+](=O)[O-])c1 | inactive
* COC(=O)Nc1nc2ccc(C(=O)c3ccccc3)cc2[nH]1 | inactive
* c1ccsc1 | inactive
* OC/C=C/CO | inactive
* CCCCNS(=O)(=O)c1ccc(C)cc1 | inactive
* CCC(=O)OC(=O)CC | inactive
* Nc1ccc(Oc2ccc(Cl)cc2)cc1 | inactive
* O=[N+]([O-])c1ccc(F)c(Cl)c1 | inactive
* CCCCCC/C=C\CCCCCCCC(=O)O | inactive

Ref: PubChem BioAssay (Tox21)
